Every entry's value here was drawn from PubChem BioAssay (NCI).

In this section we review reported growth inhibition values for a set of compounds.
- MEASUREMENT_PROTOCOL: NCI Yeast Anticancer Drug Screen. Data for the rad50 strain (AID 155);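 also: 0% = growth of vehicle-only cultures of the same strain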
- MEASUREMENT_CONDITIONS: S. cerevisiae rad50 strain growth inhibition; at 50.0 µM; stronger effect = higher value
The panel holds about 79,000 compounds, 15% with a hit somewhere; the sample as a whole holds those more often. Active and inactive are the calls of the source. Rule as the data show it: active = growth inhibition above about 70%; inactive = the rest.

{"columns": ["COMPOUND", "growth inhibition"],
 "data": [
  ["CC1(c2cccs2)C(=O)NC(=O)N1C(=O)CCl (centres undefined)", "6.8% (inactive)"],
  ["c1ccc2c(c1)CCc1ccccc1N2", "1.65% (inactive)"],
  ["CC1(C)OP2(O)(OC(C)(C)c3ccccc32)c2ccccc21", "31.1% (inactive)"],
  ["O=C1CCC(N2C(=O)C3C4CCC(O4)C3C2=O)C(=O)O1 (centres undefined)", "12.9% (inactive)"],
  ["NNC(=O)c1n[nH]n(N)c1=S", "22.6% (inactive)"],
  ["Cc1ccc(S(=O)(=O)OCC(c2ccccc2)C(F)(F)F)cc1 (centres undefined)", "-3.25% (inactive)"],
  ["O=C(CCN1CCCC1)c1ccc2ccccc2c1", "32.6% (inactive)"],
  ["Cn1nnc(/N=C/c2ccccc2)n1", "5.85% (inactive)"],
  ["CC(C)c1ccc(C(=O)OCCCc2ccccc2)cc1", "8.7% (inactive)"],
  ["Cc1c(Cl)ccc2nc3ccccc3nc12", "32.4% (inactive)"],
  ["C1=CC(=C(c2ccccc2)c2ccccc2)C=C1", "-17.1% (inactive)"],
  ["OC(c1ccoc1)c1cc2ccccc2s1 (centres undefined)", "65% (inactive)"],
  ["O=C1NC(=O)C(=Nc2cccc3c(=O)[nH][nH]c(=O)c23)C(c2nc3ccccc3s2)C1=O (centres undefined)", "20.2% (inactive)"],
  ["N[C@@H](Cc1ccccc1)C(=O)NCCNC(=O)[C@@H](N)Cc1ccccc1", "-13.1% (inactive)"],
  ["O=C1C2=C(c3ccccc31)C(c1ccccc1Cl)N1C(=O)CSC1=N2 (centres undefined)", "67.9% (inactive)"],
  ["Cc1cccc(NC(=O)Nc2cccc(Cl)c2Cl)n1", "15.9% (inactive)"],
  ["[N-]=[N+]=NC(=O)c1cccc2c1Cc1ccccc1-2", "8.85% (inactive)"],
  ["CCC(C)C(NCc1ccccc1)C(=O)O (centres undefined)", "-8.75% (inactive)"],
  ["O=C(NCCCCl)c1c(O)c2ccccc2[nH]c1=O", "58.8% (inactive)"],
  ["O=C(C(=O)c1cccc(Cl)c1)c1ccccc1", "21.4% (inactive)"],
  ["CCCCCCCOc1ccc(/C=C\\c2cc[n+](CCCCCCCC[n+]3ccc(/C=C\\c4ccc(OCCCCCCC)cc4)cc3)cc2)cc1", "-22.4% (inactive)"],
  ["CCN(CC)CC(O)Cn1cnc2c(=S)nc[nH]c21 (centres undefined)", "8.7% (inactive)"],
  ["Cc1noc2ncnc(NCCCN(C)C)c12", "13.4% (inactive)"],
  ["C=CCCCCCCCCCCCCCCCCC", "-25.9% (inactive)"],
  ["Cc1cc2sc(C)[n+](CCCOS(=O)(=O)[O-])c2cc1C", "-22.6% (inactive)"],
  ["COC(=O)C1=C(C(=O)OC)P2(C)(C)OC(c3ccccc3)CN2C1(c1ccccc1)c1ccccc1 (centres undefined)", "18% (inactive)"],
  ["COC(=O)C(=O)C(C(=O)c1cccc2ccccc12)c1nc2n(c1O)C(=N)N=N2 (centres undefined)", "18.4% (inactive)"],
  ["COCCO[Si](OCCOC)(OCCOC)OCCOC", "4.3% (inactive)"],
  ["OC12CCCCCC1(N1CCOCC1)c1ccccc12 (centres undefined)", "-8.2% (inactive)"],
  ["O=C(Oc1ccc(Cl)cc1)c1ccccc1", "25.3% (inactive)"],
  ["Cc1ccc([N+](=O)[O-])cc1NC(=O)C(=O)Cc1nc2ccc(C(=O)c3ccccc3)cc2[nH]c1=O", "-4.7% (inactive)"],
  ["O=c1[nH]cc(COCCO)c(=O)[nH]1", "-20.1% (inactive)"],
  ["FC(F)(F)c1cccc(N=Cc2ccc(C=Nc3cccc(C(F)(F)F)c3)cc2)c1", "10.4% (inactive)"],
  ["Clc1cc2ncn(C3CCCO3)c2cc1Cl (centres undefined)", "6.3% (inactive)"],
  ["ClCc1c(-c2ccccc2)nn(-c2ccccc2)c1CCl", "8.65% (inactive)"],
  ["Cc1ncc([N+](=O)[O-])n1CCNCCCCn1ccnc1[N+](=O)[O-]", "-28.4% (inactive)"],
  ["C=CCOCc1ccc(C(C)(C)CC(C)(C)C)cc1", "-5.25% (inactive)"],
  ["COC(=O)C1(OC(=O)Sc2ccccc2)CCN(C)CC1", "-19.8% (inactive)"],
  ["C(=C\\c1cccs1)/c1csnn1", "0.7% (inactive)"],
  ["Cc1ccc(S(=O)(=O)N/N=C2\\CCC3CC2C3(C)C)cc1 (centres undefined)", "1% (inactive)"],
  ["C=CNC(=S)n1nc(-c2ccccc2NC(=O)C(F)(F)F)c(=O)n(C(=S)NC=C)c1=S", "31.4% (inactive)"],
  ["C[N+](C)(CCO)CCN1c2ccccc2Sc2ccccc21", "-3.1% (inactive)"],
  ["CC(C)C(=O)C(C)(C)CCc1ccccn1", "-23.4% (inactive)"],
  ["N#CC(=C1CCN(Cc2ccccc2)CC1)c1ccccc1", "37.2% (inactive)"],
  ["CN(C)Cc1ccc2ccccc2c1", "0.2% (inactive)"],
  ["COc1ccc(OC)c(/C=C/c2ccc(NC(=O)Nc3ccccc3Cl)cc2)c1", "10.8% (inactive)"],
  ["O=C(NC(=O)C1CCC(=O)N1Cc1ccccc1)NC1CCC(=O)N1Cc1ccccc1 (centres undefined)", "3.35% (inactive)"],
  ["CCCCCC(N)=O", "16.6% (inactive)"],
  ["O=C1CSC(c2ccccn2)N1CCN1C(=O)CSC1c1ccccn1 (centres undefined)", "7.4% (inactive)"]
]}

###

- MEASUREMENT_PROTOCOL: NCI Yeast Anticancer Drug Screen. Data for the mec2-1 strain (AID 157)
- MEASUREMENT_CONDITIONS: S. cerevisiae mec2-1 strain, at 50.0 µM, stronger effect = higher value
The panel holds about 79,000 compounds, 15% with a hit somewhere; the sample as a whole holds those more often.
TEST_READOUT: growth inhibition (%)

{"columns": ["COMPOUND", "ASSAY_VALUE"],
 "data": [
  ["CCOC(=O)CCC1CCCCC1", -8.15],
  ["CCOC(C)=C(C#N)C#N", -9.4],
  ["N#Cc1cnsc1", 2.65],
  ["CC1CCC(C(C)(C)c2ccccc2)C(=O)C1 (stereo not given)", -17.6],
  ["COC1/C=C/OC2(C)Oc3c(C)c(O)c4c(O)c(c(/C=N/N5CCN(Cc6cccc(C(F)(F)F)c6)CC5)c(O)c4c3C2=O)NC(=O)C(C)=C/C=C/C(C)C(O)C(C)C(O)C(C)C(OC(C)=O)C1C (stereo not given)", 30.7],
  ["Cc1ccc(N=C2SC(=NN(C)C)SC2=Nc2ccc(C)cc2)cc1", -14.1],
  ["Cn1c(=O)c2[nH]c(SCC(=O)O)nc2n(C)c1=O", 0.95],
  ["CCc1ccccc1OCC(O)CO (stereo not given)", -2.45],
  ["O=C1c2c(F)c(F)c(F)c(F)c2SC2=Nc3cccc4cccc(c34)N12", -3.8],
  ["Fc1ccc(Cl)c(-c2nc3ccccc3[nH]2)c1", 15.4],
  ["OCC1CC2c3ccccc3C1c1ccccc12 (stereo not given)", -22.1],
  ["CN(C)CCSS(=O)(=O)O", -23.1],
  ["Cn1c(=O)n(CCn2c(=O)n(C)c3ccccc32)c2ccccc21", 14],
  ["CCCCCCC(O)CC[C@H]1CCC[C@@H](C)N1 (stereo not given in full)", 26.3],
  ["CCCCCCCCCC/C=C/C=O", 43.5],
  ["O=C([O-])C(=O)[N-]CCC[N-]C(=O)C(=O)[N-]CCC[N-]C(=O)C(=O)[O-].[Cu+2].[Cu+2].[Na+]", -13.6],
  ["O=C(CCC(=O)Nc1ccc(Cl)cc1)CC(=O)c1ccc2ccccc2c1", -28.9],
  ["CC(C)(C)c1cc[n+](C[n+]2ccc(C(C)(C)C)cc2)cc1", -12.2],
  ["O=C(Cc1ccccc1)NCc1ccccc1", -7.15],
  ["CC1C2CC(CC2O)C1(C)C (stereo not given)", 16.6],
  ["CN(c1ccc(Cl)cc1)S(=O)(=O)c1ccc([N+](=O)[O-])cc1", -23.5],
  ["CC(=O)Nc1nc(NC(C)=O)c2nc(C)cnc2n1", 20.6],
  ["O=C(Nc1ccccc1)O/N=C(/c1ccccc1)c1cccnc1", -5.1],
  ["CC12CCC(C/C1=N\\O)C2(C)CBr (stereo not given)", -2.15],
  ["Cc1ccc(NC(=O)Nc2ccc(Cl)cc2)c(C)c1", -6]
]}
